All figures here come from patent US5102786A.

molecular target: plasma proteins (Homo sapiens); construct: Experiments were conducted with a set of plasma solutions in HEPES buffer; from tissue; host or cells: plasma; assay: in vitro; assay type: binding; details: plasma
Sequence (P02768 25-609): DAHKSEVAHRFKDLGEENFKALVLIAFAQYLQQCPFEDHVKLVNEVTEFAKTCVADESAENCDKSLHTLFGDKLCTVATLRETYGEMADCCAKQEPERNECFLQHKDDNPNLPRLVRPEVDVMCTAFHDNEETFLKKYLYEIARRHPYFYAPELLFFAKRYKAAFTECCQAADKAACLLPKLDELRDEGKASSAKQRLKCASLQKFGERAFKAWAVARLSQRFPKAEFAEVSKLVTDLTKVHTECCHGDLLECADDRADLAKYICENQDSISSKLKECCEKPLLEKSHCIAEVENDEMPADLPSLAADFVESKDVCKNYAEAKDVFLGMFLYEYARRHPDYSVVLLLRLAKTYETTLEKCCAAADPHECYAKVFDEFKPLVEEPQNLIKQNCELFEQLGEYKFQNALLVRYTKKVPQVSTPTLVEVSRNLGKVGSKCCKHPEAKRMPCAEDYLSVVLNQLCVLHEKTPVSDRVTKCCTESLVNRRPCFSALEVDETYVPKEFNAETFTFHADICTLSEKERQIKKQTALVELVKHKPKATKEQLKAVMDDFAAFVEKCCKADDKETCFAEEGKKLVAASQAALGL
PROPERTY LABEL: fraction unbound at 93 µM

compound="O=C1NC(=O)C(c2ccccc2)(c2ccccc2)N1 [phenytoin, reference compound]" measurement=0.119

----------
assay: Displacement of phenobarbital from plasma protein (filtration through Centricon PM 10, scintillation counting); details: human, plasma
PROPERTY LABEL: fraction unbound at 1 h

molecule="CCC1(c2ccccc2)C(=O)NC(=O)NC1=O [phenobarbital, reference compound]" measurement=0.555

----------
assay: Displacement of phenobarbital from plasma protein (filtration through Centricon PM 10, scintillation counting); conditions: human, plasma
PROPERTY LABEL: fraction unbound

compound="CCC1(c2ccccc2)C(=O)NC(=O)NC1=O [phenobarbital, reference compound]" property_label="fraction unbound" measurement=~0.55
